src = patent US20240301023A1

# reported cAMP assay (ALPHAScreen), result at 10 µM peptide; entries follow
# TARGET DESC: Delta opioid receptor (DOR)
# ASSAY NOTES: cell-based or functional assay
Square brackets hold non-standard residues; d marks the D form. Phe(4-NO2) = N[C@@H](Cc1ccc([N+](=O)[O-])cc1)C(=O)O; Sar = CNCC(=O)O

>  <BINDER>
H-Y[Sar]FL[dR]R-NH2 [SEQ ID NO. 6: NH2-Tyr-Sar-Phe-Leu-DArg-Arg-NH2]

>  <RESULT>
2.25

$$$$
>  <BINDER>
H-Y[Sar][Phe(4-NO2)]LR[dR]-NH2 [SEQ ID NO. 4: NH2-Tyr-Sar-(4-NO2)Phe-Leu-Arg-DArg-NH2]

>  <RESULT>
2.04

$$$$
>  <BINDER>
H-Y[Sar][Phe(4-NO2)]L[dR]R-NH2 [SEQ ID NO. 5: NH2-Tyr-Sar-(4-NO2)Phe-Leu-DArg-Arg-NH2]

>  <RESULT>
2.02

$$$$

Please report the recorded cAMP assay (ALPHAScreen), result at 10 µM peptide for H-Y[Sar][Phe(4-NO2)]L[dK][dR]-NH2 [SEQ ID NO. 10: NH2-Tyr-Sar-(4-NO2)Phe-Leu-DLys-DArg-NH2] .
-0.95
